Give pIC50 for every item shown.
# subject of test: CGRP receptor (Homo sapiens, UniProt O60894+Q16602)
# Sequence (Q16602 23-461): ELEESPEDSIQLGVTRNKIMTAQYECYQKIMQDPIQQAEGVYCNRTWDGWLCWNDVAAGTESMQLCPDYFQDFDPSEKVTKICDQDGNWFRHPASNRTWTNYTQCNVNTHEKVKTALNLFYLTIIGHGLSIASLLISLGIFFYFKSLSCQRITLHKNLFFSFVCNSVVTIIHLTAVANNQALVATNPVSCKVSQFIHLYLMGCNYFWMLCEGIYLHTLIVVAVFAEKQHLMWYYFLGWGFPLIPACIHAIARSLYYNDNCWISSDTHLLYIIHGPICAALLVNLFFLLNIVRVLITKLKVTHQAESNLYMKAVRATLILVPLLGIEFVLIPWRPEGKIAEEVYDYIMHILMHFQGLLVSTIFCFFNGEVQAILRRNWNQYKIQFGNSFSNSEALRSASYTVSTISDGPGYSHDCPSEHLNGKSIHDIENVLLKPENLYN
# Sequence (O60894 27-148): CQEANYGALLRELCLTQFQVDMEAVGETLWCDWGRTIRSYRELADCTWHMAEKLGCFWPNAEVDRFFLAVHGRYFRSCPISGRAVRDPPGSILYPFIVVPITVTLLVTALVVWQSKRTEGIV
# experiment: CGRP radioligand binding assay ([125I]-CGRP displacement, SK-N-MC homogenate)
# Parameters: endogenous in cells; host or cells: SK-N-MC cells (homogenate/membrane pellet)
# cond: displacement of [125I]-CGRP, room temperature 2 h
pIC50: −log10 of the molar value.

# compound string, subject of test, pIC50
rows = [
    ("O=C(N[C@@H]1Cc2ccc3[nH]ncc3c2CN(C2CCNCC2)C1=O)N1CCC(N2Cc3ccccc3NC2=O)CC1", "CGRP receptor (Homo sapiens, UniProt O60894+Q16602)", "6.00 to 7.00"),
    ("CC(C)(C)CN1Cc2c(cc(Br)c3[nH]ncc23)C[C@@H](CC(=O)N2CCC(c3cc4cccc(F)c4[nH]c3=O)CC2)C1=O", "CGRP receptor (Homo sapiens, UniProt O60894+Q16602)", "7.00 to 8.00"),
]

get_value(item= O=C(C[C@@H]1Cc2cc(Br)c3[nH]ncc3c2CN(CC(F)(F)F)C1=O)N1CCC(c2cc3cccc(F)c3[nH]c2=O)CC1 , readout=pIC50) returns 7.00 to 8.00
